Attribute: Ratio
Measured target: Integrin alpha-V/beta-3 (Homo sapiens) (UniProt P05106+P06756)
Assay remarks: Inhibition of fibrinogen binding to immobilized vitronectin receptor
Format: protein-complex assay
Set-up: reference not given here

| Molecule | Ratio |
| --- | --- |
| C[C@H](NC(=O)c1ccc(C(=N)N)cn1)C(=O)N1CCC(OCC(=O)O)CC1 | > 30000 |
| C[C@H](Cc1ccc(OCC(=O)O)cc1)NS(=O)(=O)c1ccc(C(=N)N)cc1 | > 30000 |
| N=C(N)c1ccc(C(=O)NCC(=O)N2CCC(OCC(=O)O)CC2)cc1 | > 8000 |
| C[C@H](NC(=O)c1ccc(C(=N)N)cc1)C(=O)N1CCC(OCC(=O)O)CC1 [RO-44-3888] | > 27000 |

###

Assay remarks: Inhibition of platelet aggregation in human-platelet rich plasma(h-PRP) induced by collagen
Format: functional
pIC50: −log10 of the molar value.

| Smiles input | Relation symbol | pIC50 |
| --- | --- | --- |
| N=C(N)c1cccc(S(=O)(=O)NCCc2ccc(OCC(=O)O)cc2)c1 | < | 3.70 |
| N=C(N)c1ccc(C(=O)NCCCCC(=O)N[C@@H](CC(=O)O)C(=O)N[C@@H](Cc2ccccc2)C(=O)O)cc1 | = | 6.40 |
| N=C(N)c1ccc(C(=O)NCCc2ccc(OCC(=O)O)cc2)cc1 | = | 6.52 |
| C[C@@H](Cc1ccc(OCC(=O)O)cc1)NS(=O)(=O)c1ccc(C(=N)N)cc1 | = | 4.96 |
| N=C(N)c1ccc(S(=O)(=O)NCCc2ccc(OCC(=O)O)cc2)cc1 | = | 4.92 |

###

Measured target: Integrin alpha-IIb/beta-3 (Homo sapiens) (UniProt P05106+P08514)
Assay remarks: Inhibition of fibrinogen binding to immobilized fibrinogen receptor
Format: protein-complex assay
Parameters: reference not given here
Square brackets hold non-standard residues; d marks the D form. Peptide text beside a SMILES is read from it. * marks the point of attachment. 3Abz = Nc1cccc(C(=O)O)c1; Boc = CC(C)(C)OC(=O)*
Value type: Ratio

| Molecule | Measured target | Reported measurement |
| --- | --- | --- |
| CC(C)[C@H](NC(=O)[C@H](CC(=O)O)NC(=O)c1cccc(NC(=O)[C@H](CCCN=C(N)N)NC(=O)OC(C)(C)C)c1)C(=O)O (Boc-R[3Abz]DV-OH) | Integrin alpha-IIb/beta-3 (Homo sapiens) (UniProt P05106+P08514) | 0.06 |
| CC(C)[C@H](NC(=O)[C@H](CC(=O)O)NC(=O)CNC(=O)COc1ccc(C(=N)N)cc1)C(=O)O | Integrin alpha-IIb/beta-3 (Homo sapiens) (UniProt P05106+P08514) | 0.02 |
| N=C(N)c1ccc(C(=O)N[C@@H](Cc2ccc(O)cc2)C(=O)N2CCC(OCC(=O)O)CC2)cc1 [LAMIFIBAN] | Integrin alpha-IIb/beta-3 (Homo sapiens) (UniProt P05106+P08514) | 0.0002 |
| N=C(N)c1ccc(C(=O)NCC(=O)N2CCC(OCC(=O)O)CC2)cc1 | Integrin alpha-IIb/beta-3 (Homo sapiens) (UniProt P05106+P08514) | 0.008 |
| N=C(N)c1ccc(C(=O)NCCC(=O)N[C@@H](CC(=O)O)C(=O)N[C@@H](Cc2ccccc2)C(=O)O)cc1 | Integrin alpha-IIb/beta-3 (Homo sapiens) (UniProt P05106+P08514) | 0.0003 |
| N=C(N)c1ccc(C(=O)NCC(=O)N[C@@H](CC(=O)O)C(=O)N[C@@H](Cc2ccccc2)C(=O)O)cc1 | Integrin alpha-IIb/beta-3 (Homo sapiens) (UniProt P05106+P08514) | 1 |
| N=C(N)c1ccc(C(=O)NCCC(=O)NCCC(=O)O)cc1 | Integrin alpha-IIb/beta-3 (Homo sapiens) (UniProt P05106+P08514) | 0.007 |
| N=C(N)c1ccc(C(=O)NCC(=O)c2ccc(OCC(=O)O)cc2)nc1 | Integrin alpha-IIb/beta-3 (Homo sapiens) (UniProt P05106+P08514) | 0.001 |
| N=C(N)c1ccc(C(=O)NCCCCC(=O)N[C@@H](CC(=O)O)C(=O)N[C@@H](Cc2ccccc2)C(=O)O)cc1 | Integrin alpha-IIb/beta-3 (Homo sapiens) (UniProt P05106+P08514) | 0.004 |
| N=C(N)NCCC[C@H](N)C(=O)NCC(=O)N[C@@H](CC(=O)O)C(=O)N[C@@H](CO)C(=O)O | Integrin alpha-IIb/beta-3 (Homo sapiens) (UniProt P05106+P08514) | 1 |
| N=C(N)c1ccc(C(=O)NCCc2ccc(OCC(=O)O)cc2)cc1 | Integrin alpha-IIb/beta-3 (Homo sapiens) (UniProt P05106+P08514) | 0.028 |
| N=C(N)c1ccc(C(=O)NCC(=O)c2ccc(OCC(=O)O)cc2)cc1 | Integrin alpha-IIb/beta-3 (Homo sapiens) (UniProt P05106+P08514) | 0.004 |
| C[C@H](NC(=O)c1ccc(C(=N)N)cn1)C(=O)N1CCC(OCC(=O)O)CC1 | Integrin alpha-IIb/beta-3 (Homo sapiens) (UniProt P05106+P08514) | 0.0001 |
| C[C@H](Cc1ccc(OCC(=O)O)cc1)NS(=O)(=O)c1ccc(C(=N)N)cc1 | Integrin alpha-IIb/beta-3 (Homo sapiens) (UniProt P05106+P08514) | 10.5 |
| N=C(N)c1ccc(CC(N)C(=O)Nc2cccc(C(=O)NCCC(=O)O)c2)cc1 (stereo not given) | Integrin alpha-IIb/beta-3 (Homo sapiens) (UniProt P05106+P08514) | 10 |
| CC(C)[C@H](NC(=O)[C@H](CC(=O)O)NC(=O)CNC(=O)[C@@H](N)CCCNC(=N)N)C(=O)O (H-RGDV-OH) | Integrin alpha-IIb/beta-3 (Homo sapiens) (UniProt P05106+P08514) | 0.63 |
| N=C(N)c1ccc(C(=O)Nc2cccc(C(=O)NCCC(=O)O)c2)cc1 | Integrin alpha-IIb/beta-3 (Homo sapiens) (UniProt P05106+P08514) | 0.0005 |
| N=C(N)c1ccc(C(=O)N[C@@H](CC(=O)O)C(=O)N2CCC(OCC(=O)O)CC2)cc1 | Integrin alpha-IIb/beta-3 (Homo sapiens) (UniProt P05106+P08514) | 0.02 |
| NC(N)=NCCC[C@H](N)C(=O)Nc1cccc(C(=O)NCCC(=O)O)c1 | Integrin alpha-IIb/beta-3 (Homo sapiens) (UniProt P05106+P08514) | 1.3 |
| CC(C)[C@H](NC(=O)[C@H](CC(=O)O)NC(=O)CCCNC(=O)c1ccc(C(=N)N)cc1)C(=O)O | Integrin alpha-IIb/beta-3 (Homo sapiens) (UniProt P05106+P08514) | 0.002 |

Reference source: ChEMBL document CHEMBL1125366
